system: Trichuris muris adult worms; assay: mean motility score (Paragon pixel variance) of adult worms (arbitrary units); higher = more motile worms, i.e. less anthelmintic effect; extreme values may be limits of the assay; details: 100 µM; 24 h

Molecule: CC(CCc1ccc(O)cc1)NCCc1ccc(O)c(O)c1 (configuration not stated) [dobutamine]
mean motility score: 2870

Molecule: Nc1cc(C(F)(F)F)c(-c2cc(N3CCOCC3)nc(N3CCOCC3)n2)cn1 [buparlisib]
mean motility score: 3960

Molecule: COC(=O)C1=C(C)NC(C)=C(C(=O)OCCN(C)Cc2ccccc2)C1c1cccc([N+](=O)[O-])c1 (configuration not stated) [nicardipine]
mean motility score: 0

Molecule: Nc1ccc(S(=O)(=O)Nc2ncccn2)cc1 [sulfadiazine]
mean motility score: 2030

Molecule: CN1CCN(CCCN2c3ccccc3Sc3ccc(C(F)(F)F)cc32)CC1.Cl.Cl [trifluoperazine dihydrochloride]
mean motility score: 0

Molecule: CC(=O)Oc1cc(C(C)C)c(OCCN(C)C)cc1C.Cl [moxisylyte hydrochloride]
mean motility score: 1780

Molecule: COc1ccccc1OCCNCC(O)COc1cccc2[nH]c3ccccc3c12 (configuration not stated) [carvedilol]
mean motility score: 35.7

Molecule: NS(=O)(=O)c1cc2c(cc1C(F)(F)F)NCNS2(=O)=O [hydroflumethiazide]
mean motility score: 1060

Molecule: C[C@H]1O[C@@H](n2cc(F)c(=O)[nH]c2=O)[C@H](O)[C@@H]1O [doxifluridine]
mean motility score: 2010

Molecule: CCOc1cc(CC(=O)N[C@@H](CC(C)C)c2ccccc2N2CCCCC2)ccc1C(=O)O [repaglinide]
mean motility score: 268

Molecule: CN(C(=O)CN(CCO)CC(=O)N(C)C(C)(C)Cc1ccccc1)C(C)(C)Cc1ccccc1 [oxethazaine]
mean motility score: 184

Molecule: Cc1nc(Nc2ncc(C(=O)Nc3c(C)cccc3Cl)s2)cc(N2CCN(CCO)CC2)n1 [dasatinib]
mean motility score: 1190

Molecule: Oc1nc2ccccc2n1C1CCN(CCCC(c2ccc(F)cc2)c2ccc(F)cc2)CC1 [pimozide]
mean motility score: 0

Molecule: Nc1ccc(C(=O)Oc2ccccc2)c(O)c1 [phenyl aminosalicylate]
mean motility score: 1040

Molecule: CCOC(=O)[C@H](CCc1ccccc1)N[C@@H](C)C(=O)N1[C@H](C(=O)O)C[C@@H]2CCC[C@@H]21 [ramipril]
mean motility score: 3060

Molecule: CN1CCN(CC/C=C2/c3ccccc3Sc3ccc(S(=O)(=O)N(C)C)cc32)CC1 [thiothixene]
mean motility score: 1030

Molecule: O=C(CCCN1CC=C(n2c(O)nc3ccccc32)CC1)c1ccc(F)cc1 [droperidol]
mean motility score: 2120

Molecule: O=C(O)c1ccc2ccccc2c1O.OCc1cc(C(O)CNCCCCCCOCCCCc2ccccc2)ccc1O (configuration not stated) [salmeterol xinafoate]
mean motility score: 0

Molecule: Cc1oncc1C(=O)Nc1ccc(C(F)(F)F)cc1 [leflunomide]
mean motility score: 2250

Molecule: CNC(=O)c1cc(Oc2ccc(NC(=O)Nc3ccc(Cl)c(C(F)(F)F)c3)cc2)ccn1 [sorafenib]
mean motility score: 781

Molecule: CCN1CCN(c2cc(-c3ccc(F)cc3)c3c(n2)CCCCCC3)CC1 [blonanserin]
mean motility score: 3080

Molecule: CC[C@H](Nc1ncnc2[nH]cnc12)c1nc2cccc(F)c2c(=O)n1-c1ccccc1 [idelalisib]
mean motility score: 3590

Molecule: Nc1ccc(S(=O)(=O)Nc2ccnn2-c2ccccc2)cc1 [sulfaphenazole]
mean motility score: 3280

Molecule: CN(Cc1cnc2nc(N)nc(N)c2n1)c1ccc(C(=O)N[C@@H](CCC(=O)O)C(=O)O)cc1 [methotrexate]
mean motility score: 3700

Molecule: CN(C)CCCN1c2ccccc2Sc2ccc(Cl)cc21 [chlorpromazine]
mean motility score: 0

Molecule: CCCc1nc(C(C)(C)O)c(C(=O)OCc2oc(=O)oc2C)n1Cc1ccc(-c2ccccc2-c2nnn[nH]2)cc1 [olmesartan medoxomil]
mean motility score: 3650

Molecule: CC(=O)N1CCN(c2ccc(OC[C@@H]3CO[C@@](Cn4ccnc4)(c4ccc(Cl)cc4Cl)O3)cc2)CC1 [ketoconazole]
mean motility score: 1360

Molecule: C=CC(=O)N1CCC[C@@H](n2nc(-c3ccc(Oc4ccccc4)cc3)c3c(N)ncnc32)C1 [ibrutinib]
mean motility score: 433

Molecule: C[C@H](Cc1cc2c(c(C(N)=O)c1)N(CCCO)CC2)NCCOc1ccccc1OCC(F)(F)F [silodosin]
mean motility score: 3810

Molecule: CC(=O)Oc1cccc2c1C(=O)c1c(OC(C)=O)cc(C(=O)O)cc1C2=O [diacerein]
mean motility score: 0

Molecule: c1ccc(-c2ccc(C(c3ccccc3)n3ccnc3)cc2)cc1 (configuration not stated) [bifonazole]
mean motility score: 20

Molecule: CC[N+](CC)(CCNC(=O)C(=O)NCC[N+](CC)(CC)Cc1ccccc1Cl)Cc1ccccc1Cl [ambenonium]
mean motility score: 3180

###

tested on: Trichuris muris adult worms; test: mean motility score (Paragon pixel variance) of adult worms (arbitrary units); higher = more motile worms, i.e. less anthelmintic effect; extreme values may be limits of the assay; settings: 100 µM; 24 h

Molecule: CCCCc1nc(Cl)c(CO)n1Cc1ccc(-c2ccccc2-c2nn[nH]n2)cc1 [losartan]
mean motility score: 3650
//
Molecule: CS(=O)(=O)CCNCc1ccc(-c2ccc3ncnc(Nc4ccc(OCc5cccc(F)c5)c(Cl)c4)c3c2)o1 [lapatinib]
mean motility score: 999
//
Molecule: COC(=O)[C@H](c1ccccc1Cl)N1CCc2sccc2C1 [clopidogrel]
mean motility score: 2110
//
Molecule: CC1(C)S[C@@H]2[C@H](NC(=O)COc3ccccc3)C(=O)N2[C@H]1C(=O)O [penicillin V]
mean motility score: 1470
//
Molecule: O=C(c1ccccc1)c1ccc2n1CCC2C(=O)O (stereo not given) [ketorolac]
mean motility score: 2460

###

system: Trichuris muris adult worms; experiment: mean motility score (Paragon pixel variance) of adult worms (arbitrary units); higher = more motile worms, i.e. less anthelmintic effect; extreme values may be limits of the assay; settings: 100 µM; 24 h
The following compounds are listed with their measured mean motility score values.

Compound: C[C@@H](Oc1cc(-c2cnn(C3CCNCC3)c2)cnc1N)c1c(Cl)ccc(F)c1Cl
mean motility score: 284
//
Compound: Cc1[nH]c(/C=C2\C(=O)Nc3ccccc32)c(C)c1CCC(=O)O [orantinib]
mean motility score: 3560
//
Compound: CCCCCCCCCC(=O)OC1(c2ccc(Cl)cc2)CCN(CCCC(=O)c2ccc(F)cc2)CC1 [haloperidol decanoate]
mean motility score: 4450
//
Compound: COc1cc2ncnc(Nc3ccc(F)c(Cl)c3)c2cc1OCCCN1CCOCC1
mean motility score: 1080
//
Compound: CCCc1nc2c(C)cc(-c3nc4ccccc4n3C)cc2n1Cc1ccc(-c2ccccc2C(=O)O)cc1
mean motility score: 1900
//
Compound: N=C(N)NCCN1CCCCCCC1.N=C(N)NCCN1CCCCCCC1.O=S(=O)(O)O [guanethidine sulfate]
mean motility score: 2380
//
Compound: CS(=O)(=O)OCCCCOS(C)(=O)=O
mean motility score: 3180
//
Compound: CCCCOc1cc(C(=O)NCCN(CC)CC)c2ccccc2n1
mean motility score: 2070

###

tested on: Trichuris muris adult worms; experiment: mean motility score (Paragon pixel variance) of adult worms (arbitrary units); higher = more motile worms, i.e. less anthelmintic effect; extreme values may be limits of the assay; settings: 100 µM; 24 h
The following compounds are listed with their measured mean motility score values.
Measured quantity: mean motility score

Compound: COc1ccc(/C=C/C(=O)Nc2ccccc2C(=O)O)cc1OC
Reading: 1720
--
Compound: Cn1cnc([N+](=O)[O-])c1Sc1ncnc2nc[nH]c12
Reading: 3550
--
Compound: Nc1nc(N)c2nc(-c3ccccc3)c(N)nc2n1
Reading: 2070
--
Compound: COCCOC(=O)C1=C(C)NC(C)=C(C(=O)OC(C)C)C1c1cccc([N+](=O)[O-])c1 (stereo not given)
Reading: 112
--
Compound: COc1ccc2cccc(CCNC(C)=O)c2c1
Reading: 3270

###

tested on: Trichuris muris adult worms; assay: mean motility score (Paragon pixel variance) of adult worms (arbitrary units); higher = more motile worms, i.e. less anthelmintic effect; extreme values may be limits of the assay; conditions: 100 µM; 24 h
Label MET for high-side mean motility score (at or above 2000) and NOT MET for low-side mean motility score (below it).

Compound: CCn1nc(C(=O)O)c(=O)c2cc3c(cc21)OCO3 [cinoxacin]
Answer label: NOT MET

Compound: CSCC[C@H](N)C(=O)O [methionine]
Answer label: MET

Compound: CC(C)(C)c1ccc(C(O)CCCN2CCC(C(O)(c3ccccc3)c3ccccc3)CC2)cc1 (centres undefined) [terfenadine]
Answer label: NOT MET

Compound: CCCCCNC(=N)N/N=C/c1c[nH]c2ccc(OC)cc12.O=C(O)/C=C\C(=O)O [tegaserod maleate]
Answer label: NOT MET

Compound: N#Cc1ccc(C(c2ccc(C#N)cc2)n2cncn2)cc1 [letrozole]
Answer label: MET

Compound: CCCCCCCCCCCCCCCCO [cetyl alcohol]
Answer label: NOT MET

Compound: Cc1ccc(NC(=O)c2ccc(CN3CCN(C)CC3)cc2)cc1Nc1nccc(-c2cccnc2)n1 [imatinib]
Answer label: MET

Compound: Cl.Clc1ccccc1CN1CCc2sccc2C1 [ticlopidine hydrochloride]
Answer label: NOT MET

Compound: O=C(O)COC(=O)Cc1ccccc1Nc1c(Cl)cccc1Cl [aceclofenac]
Answer label: NOT MET
